- experimentDescription: LNP size and polydispersity index (PDI) by dynamic light scattering
- Format: physicochemical
- recordedConditions: LNP with cirRNA (SEQ ID NO: 1)
observationType: PDI
// no unit string in output, number only

Ask: Would you mind telling me what PDI value was observed for CCCCC/C=C\CCOC(=O)CCCCCN(CCCCCC(=O)OCC(CCCCCCCC)CCCCCCCCCC)CCOC(=O)NCCN1CCCCC1 (stereo not shown) [Lipid 245] ?
Reply: 0.12

Ask: Then CCCCC/C=C\C/C=C\CCCCCCCCN(CCCCCCCC/C=C\CCCCCCCC)CCOC(=O)NCCN(C)C [Lipid 67] ?
Reply: 0.087

Ask: Then CCCCC/C=C\C/C=C\CCCCCCCCN(CCCCCCCC(=O)OC(CCCCCCCC)CCCCCCCC)CCOC(=O)NCCN1CCCC1 [Lipid 128] ?
Reply: 0.1

Ask: Then CCCCCCCCC(CCCCCCCC)OC(=O)CCCCCCCN(CCCCCCCCOC(=O)C(CCCCCC)CCCCCCCC)CCCNCCN(C)C (stereo not shown) [Lipid 363] ?
Reply: 0.2547

----------
- experimentDescription: LNP size and polydispersity index (PDI) by dynamic light scattering
- Format: physicochemical
- recordedConditions: LNP with mRNA (SEQ ID NO: 2); in nm (unit assumed)
Response field label takes MET when Size is strictly below 90 and NOT MET in all other cases.

Ask: Please determine if CCCCCCCCC(CCCCCC)C(=O)OCCCCCCCCN(CCCCCCCCOC(=O)C(CCCCCC)CCCCCCCC)CCCOC(=O)NCc1ncc[nH]1 (stereo not drawn) is below 90 in terms of Size.
Reply: MET

Ask: Then CCCCCCCCC(CCCCCCCC)OC(=O)CCCCCCCN(CCCCCCCCOC(=O)C(CCCCCC)CCCCCCCC)CCCOC(=O)NCCN1CCCCC1 (stereo not drawn) ?
Reply: NOT MET

Ask: Then CCCCCCCCCCC(CCCCCCCC)COC(=O)CCCCCN(CCCCCC(=O)OCC(CCCCCCCC)CCCCCCCCCC)CCOC(=O)NCCN(C)C (stereo not drawn) ?
Reply: NOT MET

Ask: Then CCCCCCCCCC(=O)OCCCCCCCN(CCCCCCCCOC(=O)C(CCCCCC)CCCCCCCC)CCOC(=O)NCCN(C)C (stereo not drawn) ?
Reply: NOT MET

Ask: Then CCCCCCCCC(CCCCCCCC)OC(=O)CCCCCCCN(CCCCCCCCOC(=O)C(CCCCCC)CCCCCCCC)CCOC(=O)NCCN(C)C (stereo not drawn) ?
Reply: MET

----------
- Test system: BALB/C mice
- experimentDescription: In vivo expression, whole-body luminescence (IVIS)
- recordedConditions: cirRNA (SEQ ID NO: 1) LNPs, BALB/C mice
- Experimental: 6-8 week old, female BALB/C mice were injected with 0.05 mg*kg-1 of RNA-LNPs encoding for firefly-luciferase by intravenous injection. At 6 hours post injection, animals were intraperitoneally injected with 15 mg/ml of Luciferin substrate and whole-body luminescence was determined by a bioluminescent in vivo imaging system (IVIS).
Provide the reported In vivo Expression (Whole Body) of each item.
// no unit string in output, number only

Ask: Value wanted: In vivo Expression (Whole Body) (BALB/C mice) of entry "CCCCCCCCCCCOC(=O)CCCCCN(CCCCCC(=O)OCCCCCCCCCCC)CCOC(=O)NCCN(C)C"
Reply: 1.01E+05

Ask: Then "CCCCC/C=C\C/C=C\CCCCCCCCN(CCCCCCCC(=O)OC(CCCCCCCC)CCCCCCCC)CCOC(=O)NCCN1CCOCC1" ?
Reply: 8.93E+05

Ask: Then CCCCCCCCCCC(CCCCCCCC)COC(=O)CCCCCN(CCCCCC(=O)OCC(CCCCCCCC)CCCCCCCCCC)CCOC(=O)NCCCn1ccnc1 (stereo not shown) ?
Reply: 9.22E+06

Ask: Then CCCCCCCCC(CCCCCC)C(=O)OCCCCCCCCN(CCCCCCCCOC(=O)C(CCCCCC)CCCCCCCC)CCCOC(=O)NCCN1CCCCCC1 (stereo not shown) ?
Reply: 4.66E+08

Ask: Then CCCCCCCCCCC(CCCCCCCC)COC(=O)CCCCCN(CCCCCC(=O)OCC(CCCCCCCC)CCCCCCCCCC)CCCOC(=O)NCCN1CCCCCC1 (stereo not shown) ?
Reply: 5.62E+06

Ask: Then "CCCCCCCCCCCOC(=O)CCCCCN(CCCCCC(=O)OCCCCCCCCCCC)CCOC(=O)NCCN1CCCCC1" ?
Reply: 7.27E+05

Ask: Then CCCCCCCCC(CCCCCCCC)OC(=O)CCCCCCCN(CCCCCCCCOC(=O)C(CCCCCC)CCCCCCCC)CCCOC(=O)NCc1ncc[nH]1 (stereo not shown) ?
Reply: 2.49E+06
